- Tested on: SW-620 colon
- test.name: NCI-60 one-dose screen, 48 h (100 = growth as untreated, 0 = no growth, -100 = all killed)
- experimental.setup: 10 µM unless noted
About 83,000 compounds went through this panel and 20% of them were active in at least one assay; those are over-represented in the sample as a whole.
measured.endpoint: growth (%)
Answer in %, number only, no unit symbol.

Answered examples (4):
[[record]]
compound = "C1=C(N2CCCC2)CCC1"
unit_name = "%"
recorded_measurement = 101

[[record]]
compound = "CC1(C)CC2=C3C=C[C@@H]4[C@@]5(C)CCC(=O)C(C)(C)[C@@H]5CC[C@@]4(C)[C@]3(C)CC[C@@]2(C(=O)O)CC1=O"
unit_name = "%"
recorded_measurement = 66.9

[[record]]
compound = "N#Cc1nn(-c2cc(=O)[nH]c3ccc(Cl)cc23)c(N)c1C#N"
unit_name = "%"
recorded_measurement = 91.1

[[record]]
compound = "COc1ccc(OC)c(C(=O)/C=C/c2cc3c(c(OC)c2OC)OCO3)c1"
unit_name = "%"
recorded_measurement = 68.8


Qu. Would you mind telling me what growth value was observed for CCOC(=O)c1cc2c(=O)oc3ccccc3c2oc1=O ?
Ans. 105

Qu. Would you mind telling me what growth value was observed for CCCCNc1ccc(C#N)c(OCCN(CC)CC)c1 ?
Ans. 109

Qu. Would you mind telling me what growth value was observed for Cc1nc(N2CCOCC2)sc1S(N)(=O)=O ?
Ans. 91.5

---

- Test system: HCT-116 colon
- test.name: NCI-60 one-dose screen, 48 h (100 = growth as untreated, 0 = no growth, -100 = all killed)
- experimental.setup: 10 µM unless noted
Compounds without any hit were thinned out: in the full panel of roughly 83,000, 20% have a hit.
growth by entry:
Answer in %, number only, no unit symbol.

Answered examples (5):
[[record]]
compound = "Cn1cc(-c2csc(-c3c[nH]c4ccc(Br)cc34)n2)c2cnccc21"
unit_name = "%"
recorded_measurement = -90.9

[[record]]
compound = "CN1CCN(C(=O)OCc2ccc3c(Cl)cc(Cl)c(O)c3n2)CC1"
unit_name = "%"
recorded_measurement = 32.9

[[record]]
compound = "O=[N+]([O-])/C(=C/C=C/c1ccccc1)c1ccccc1"
unit_name = "%"
recorded_measurement = -5.29

[[record]]
compound = "Cn1cccc1C(=O)C1C(c2cccc([N+](=O)[O-])c2)C2C3CCCCC3CN2C12C(=O)Nc1ccc(Cl)cc12 (centres undefined)"
unit_name = "%"
recorded_measurement = 14.9

[[record]]
compound = "CC(C)N1CN2C(=S)NC3C2N(C1)C(=S)N3C (centres undefined)"
unit_name = "%"
recorded_measurement = 105


Qu. Would you mind telling me what growth value was observed for O=S(=O)(Nc1ccc(Cl)cc1)c1ccc(-c2cnc(C3CC3)o2)cc1 ?
Ans. 21.2

Qu. Would you mind telling me what growth value was observed for COc1ccc2nc(NC(=O)CSc3nnc4n3S(=O)(=O)c3ccccc3N4C)sc2c1 ?
Ans. 97.1

Qu. Would you mind telling me what growth value was observed for O=C(Cn1c(-c2ccc([N+](=O)[O-])cc2)nc2ccccc21)NNC(=O)c1cccnc1 ?
Ans. 82.1

Qu. Would you mind telling me what growth value was observed for COC(=O)/C(CCC=C(C)C)=C1\[C@@H](OC(C)=O)C[C@@]2(C)[C@H]1C[C@@H](O)[C@H]1[C@@]3(C)CC[C@H](NCCN)[C@@H](C)[C@@H]3CC[C@@]12C ?
Ans. 36.8

---

- Tested on: NCI-H226 lung
- test.name: NCI-60 one-dose screen, 48 h (100 = growth as untreated, 0 = no growth, -100 = all killed)
- experimental.setup: 10 µM unless noted
Compounds without any hit were thinned out: in the full panel of roughly 83,000, 20% have a hit.
Output t for growth not less than 90%; output f otherwise.

Qu. Record CCSc1nc(NC)c2cc(-c3ccc(C(F)(F)F)cc3)ccc2n1 ; criterion: growth no lower than 90%. Met?
Ans. t

Qu. Record C=CCc1c2c(c(OC)c3ccoc13)C(=O)/C(=C/c1ccccc1OC)O2 ; criterion: growth no lower than 90%. Met?
Ans. f

Qu. Record Brc1ccc2[nH]cc(-c3nonc3-c3c[nH]c4ccccc34)c2c1 ; criterion: growth no lower than 90%. Met?
Ans. f

---

- System: SF-268 CNS
- test.name: NCI-60 one-dose screen, 48 h (100 = growth as untreated, 0 = no growth, -100 = all killed)
- experimental.setup: 10 µM unless noted
- Procedure: Cells are grown in 96 well plates and exposed to the test compound for 48 hours. Compounds are tested at a single concentration, which is 10^-5 M for most compounds. The reported endpoint is percent growth (GI% or GIPRCNT), where numbers from 0 - 100% represent growth inhibition, and numbers from -100% - 0 represent cell death. For example, a value of 40 represents 60% growth inhibition. A value of 0 means no net growth occurred over the course of the experiment. […]
Compounds without any hit were thinned out: in the full panel of roughly 83,000, 20% have a hit.
growth by entry:
Answer in %, number only, no unit symbol.

[[record]]
molecule = "Clc1ccc2c(c1)N(c1ncnc3ccc(-c4cnc5[nH]ncc5c4)cc13)CC2"
recorded_measurement = 35.1


Qu. Would you mind telling me what growth value was observed for CCCCN[C@H]1CC[C@@]2(C)[C@@H](CC[C@@]3(C)[C@H]2[C@H](O)C[C@H]2/C(=C(\CCC=C(C)C)C(=O)OC)[C@@H](OC(C)=O)C[C@@]23C)[C@@H]1C ?
Ans. 100

Qu. Would you mind telling me what growth value was observed for Nc1nc2c([nH]1)c1[nH]c3ccccc3c1c1[nH]c3ccccc3c21 ?
Ans. 71.9

---

- Tested on: SN12C renal
- test.name: NCI-60 one-dose screen, 48 h
- experimental.setup: 10 µM unless noted
The panel holds about 83,000 compounds, 20% with a hit somewhere; the sample as a whole holds those more often. Active and inactive are the calls of the source. Rule for the calls: active = growth percent below 10; inactive = the rest.
Allowed answers: active, inactive

Consider the following illustrative entries.
[[record]]
molecule = "COc1cccc([C@H]2c3[nH]c4ccccc4c3C[C@H]3C(=O)N(CCCCCCC(=O)NO)CC(=O)N23)c1"
label_class = "inactive"

[[record]]
molecule = "O=C(N/N=C/c1ccc(F)cc1)c1ccc(C(F)(F)F)nc1Nc1cccc(C(F)(F)F)c1"
label_class = "active"

[[record]]
molecule = "COc1ccc2cc(-c3ccc(NC(C)=O)c(=O)o3)ccc2c1"
label_class = "inactive"

[[record]]
molecule = "COc1cc2oc(-c3cccc(NC(=O)c4cccc(Br)c4)c3)cc(=O)c2c(OC)c1OC"
label_class = "inactive"

[[record]]
molecule = "CCN1CC(=O)N(/N=C2\\C(=O)Nc3ccccc32)C1=S"
label_class = "inactive"


Qu. Query: recorded result category for CCc1nc2c(=O)[nH]cnc2o1 in this test
Ans. inactive

Qu. Query: recorded result category for C1=C(N2CCCC2)CCC1 in this test
Ans. inactive

Qu. Query: recorded result category for CNC(=O)c1cc(Oc2ccc3nc(NC(C)=O)sc3c2)ccn1 in this test
Ans. inactive

Qu. Query: recorded result category for O=CC1(C2(C=O)c3ccccc3-c3ccccc32)c2ccccc2-c2ccccc21 in this test
Ans. active

Qu. Query: recorded result category for CC(C)=CCC[C@](C)(O)[C@H]1CC[C@]2(C)[C@@H]1CC[C@@H]1[C@@]3(C)Cc4nccnc4C(C)(C)[C@@H]3CC[C@]12C in this test
Ans. inactive

---

- System: SNB-19 CNS
- test.name: NCI-60 one-dose screen, 48 h
- experimental.setup: 10 µM unless noted
The panel holds about 83,000 compounds, 20% with a hit somewhere; the sample as a whole holds those more often. The source made the active and inactive calls. How the source made its calls: active means growth percent below 10; inactive means the rest.
Allowed answers: true (1) = active, false (0) = inactive

Consider the following illustrative entries.
[[record]]
cpd_smiles = "O=C(Nc1ccc(-c2nc(N3CCOCC3)c3cccn3n2)cc1)Nc1cccnc1"
target_under_test = "SNB-19 CNS"
label_class = "true (1)"

[[record]]
cpd_smiles = "c1cc2[nH]ncc2cc1-c1nc2ccc3[nH]ncc3c2c2c1CCCC2"
target_under_test = "SNB-19 CNS"
label_class = "false (0)"

[[record]]
cpd_smiles = "C=C(C)[C@@H]1CC[C@]2(C(=O)OC)CC[C@]3(C)[C@H](CC[C@@H]4[C@@]5(C)C/C(=C/NC(N)=S)C(=O)C(C)(C)[C@@H]5CC[C@]43C)[C@@H]12"
target_under_test = "SNB-19 CNS"
label_class = "false (0)"

[[record]]
cpd_smiles = "O=S(=O)(NCCNc1cc(-c2c(-c3cccc(O)c3)nc3sccn23)ccn1)c1ccc(C(F)(F)F)cc1"
target_under_test = "SNB-19 CNS"
label_class = "false (0)"

[[record]]
cpd_smiles = "CCN(CC)CCNC(=O)c1cn2ncnc(Oc3ccc(NC(=O)Nc4ccc(Cl)c(C(F)(F)F)c4)c(F)c3)c2c1C"
target_under_test = "SNB-19 CNS"
label_class = "true (1)"


Qu. Query: recorded result category for C=CCn1c(SCC(=O)Nc2ccc(C(=O)/C=C/c3cc4cc(OC)ccc4nc3Cl)cc2)nnc1-c1ccc(Br)cc1 in this test
Ans. false (0)

Qu. Query: recorded result category for CCN(CC)C(=S)SC(SC(=S)N(CC)CC)C(=O)c1nnn(-c2ccc([N+](=O)[O-])cc2)c1C in this test
Ans. false (0)

Qu. Query: recorded result category for N#Cc1c(N)nnn1Cc1cc(=O)oc2c1ccc1ccccc12 in this test
Ans. false (0)

Origin of measurements: PubChem BioAssay (NCI)
